- TARGET_OR_TEST_SYSTEM: Env of HIV-1 strain R1166.c1 (HIV-1)
- PROTOCOL: cell-based or functional assay
In this section we review reported neutralization IC50 values for a set of binders.
I only need the number, in µg/mL, no unit after it.

γ22κ18 (antibody, V domains shown) VH: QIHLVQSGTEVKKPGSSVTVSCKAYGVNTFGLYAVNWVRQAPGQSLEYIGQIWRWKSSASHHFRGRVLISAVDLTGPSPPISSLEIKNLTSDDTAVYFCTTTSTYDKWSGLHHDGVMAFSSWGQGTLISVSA VL: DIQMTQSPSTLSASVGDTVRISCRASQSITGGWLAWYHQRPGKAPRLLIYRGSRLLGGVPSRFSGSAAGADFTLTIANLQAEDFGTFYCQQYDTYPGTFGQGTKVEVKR | 7.31

Query: Need neutralization IC50, item γ15κ11 (antibody, V domains shown) VH: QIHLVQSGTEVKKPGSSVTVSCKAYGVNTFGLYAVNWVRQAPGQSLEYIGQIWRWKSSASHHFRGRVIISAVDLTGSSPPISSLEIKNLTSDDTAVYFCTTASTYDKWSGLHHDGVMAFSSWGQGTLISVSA VL: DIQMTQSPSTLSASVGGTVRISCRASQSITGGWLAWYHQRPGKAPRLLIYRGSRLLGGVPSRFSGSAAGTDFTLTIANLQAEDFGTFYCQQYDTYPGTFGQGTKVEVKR
Result: 9.81
